Measured Human primary T Cell Binding (FOI) by item
- Target under test: T1, human CD3 (human, UniProt P07766 23-207; P04234 22-171; P09693 23-182)
- T1 construct: whole, on cells; also called CD3 on Jurkat cells; CD3 on human primary T cells
- T1 sequence (P07766 23-207, chain 1 of 3): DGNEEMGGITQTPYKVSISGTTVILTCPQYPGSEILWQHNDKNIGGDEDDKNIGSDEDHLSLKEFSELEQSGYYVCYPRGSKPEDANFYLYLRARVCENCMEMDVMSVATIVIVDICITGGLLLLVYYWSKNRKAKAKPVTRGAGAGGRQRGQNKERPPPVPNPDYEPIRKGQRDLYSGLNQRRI
- T1 sequence (P04234 22-171, chain 2 of 3): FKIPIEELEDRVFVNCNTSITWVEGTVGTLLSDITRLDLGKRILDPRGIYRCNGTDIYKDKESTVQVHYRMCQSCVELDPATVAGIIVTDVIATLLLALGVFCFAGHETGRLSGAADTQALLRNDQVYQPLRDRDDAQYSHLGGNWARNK
- T1 sequence (P09693 23-182, chain 3 of 3): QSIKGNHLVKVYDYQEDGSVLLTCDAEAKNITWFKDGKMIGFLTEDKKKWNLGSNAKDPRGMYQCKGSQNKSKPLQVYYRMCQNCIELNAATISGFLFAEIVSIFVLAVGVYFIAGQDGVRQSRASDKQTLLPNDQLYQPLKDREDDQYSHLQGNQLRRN
- Assay protocol: flow cytometry, human primary T cells, 25 nM antibody
The response must be a number in FOI with no trailing unit.

Reference set, count: 2
Binder	Unit of measure	Human primary T Cell Binding (FOI)
mAb 296 (antibody, V domains shown, VH and VL only) VH: EVQLLESGGGLVQPGGSLRLSCAASGFTFSSYAMSWVRQAPGKGLEWVSAISGSGGTTYYTDSVKGRFTISRDNSKNTLYLQMNSLRAEDTAVYYCAKKYSYYYYYMDVWGKGTTVTVSS VL: SYELTQPLSVSVALGQTARITCGGNNIGSKNVHWYQQKPGQAPVLVIYRDSNRPSGIPERFSGSNSGNTATLTISRAQAGDEADYYCQVWDSSTAVFGGGTQLTAL	FOI	183
mAb 301 (antibody, V domains shown, VH and VL only) VH: EVQLLESGGGLVQPGGSRRLSCAASGFTFSSYAMSWVRQAPGKGLEWVSVISGRGDNTNYADSVKGRFTISRENSKNMLYLQMNSLRAEDTAVYYCAKKYSYYYYYMDVWGKGTTVTVSS VL: SYELTQPLSVSVALGQTARITCGGNNIGSKDVHWYQQKPGQAPVLVIYRDSNRPSGIPERFSGSNSGNTATLTISRAQAGDEADYYCQVWDSRTAVFGGGTQLTAL	FOI	283

Switching to the query record.
Query string: Which Human primary T Cell Binding (FOI) is listed for mAb 292 (antibody, V domains shown, VH and VL only) VH: EVQLLESGGGLVQPGGSRRLSCAASGFTFSTYAMSWVRQAPGKGLEWVSVINGRGDDTNYADSVKGRFTISRDNSKNILFLQMNSLRAEDTAVYYCAKKYSYYYYYMDVWGKGTTVTVSS VL: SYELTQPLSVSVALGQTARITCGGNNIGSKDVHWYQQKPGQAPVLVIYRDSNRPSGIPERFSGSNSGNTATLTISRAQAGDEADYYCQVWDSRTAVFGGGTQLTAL ?
Result string: 255

// data source = patent US20230295310A1
